- Test system: Staph.aureus A 321
- method summary: agar serial dilution test
- Assay type: cell-based, Staphylococcus aureus
- measurement conditions: Staphylococcus aureus, A321, 24 h, agar serial dilution, 24 hours, 37° C.; read-out: minimal inhibitory concentration (MIC)
recorded metric: log10 MIC (log10 of the value in µg/mL)

> print(dat)
                                   compound  recorded.metric  value
1  CC1(C)S[C@@H]2[C@H](NC(=O)Cc3nc(-c4c(Cl)cccc4Cl)no3)C(=O)N2[C@H]1C(=O)O [Example 11A]        log10 MIC  -1.22
2  C=CCNC(=O)Cc1nc(CC(=O)N[C@@H]2C(=O)N3C(C(=O)O)=C(COC(C)=O)CS[C@H]23)no1        log10 MIC   0.18
3  CC(=O)OCC1=C(C(=O)O)N2C(=O)[C@@H](NC(=O)Cc3cccs3)[C@H]2SC1 [Cephalotin, reference compound]        log10 MIC  -0.30
4  CC1=C(C(=O)O)N2C(=O)[C@@H](NC(=O)Cc3nc(Cc4ccccc4)no3)[C@H]2SC1        log10 MIC   0.48
5  CCc1nc(CC(=O)N[C@@H]2C(=O)N3C(C(=O)O)=C(CSc4nnc(C)s4)CS[C@H]23)no1        log10 MIC  -0.60
6  CCc1noc(CC(=O)N[C@@H]2C(=O)N3C(C(=O)O)=C(COC(C)=O)CS[C@H]23)n1 [Example 11L]        log10 MIC  -0.60
7  CCc1noc(CC(=O)N[C@@H]2C(=O)N3[C@@H]2SC(C)(C)[C@@H]3C(=O)O)n1 [Example 11G]        log10 MIC  -0.92
